# Test: Toxicity liver stage against HepG2, at 10uM
# Type: cell-based
# Design: test concentration 10 uM, cell line HepG2-A16-CD81EGFP
# Experimental Setup: human, HepG2-A16-CD81EGFP cells; read-out: INHIBITION
# cytotoxicity at 10 µM annotations
API: value field is a number in %; no unit string.

# example entries with known answers
c1ccc(N2CCCC3(CCN(Cc4ccsc4)C3)C2)nc1 (stereo unspecified) ... -14
CNc1ccccc1C(=O)N(C)CCc1ccccc1 ... -1.76
Cc1nc(CN2CCCC(CCc3ccccc3C(F)(F)F)C2)co1 (stereo unspecified) ... 0.663
COC(=O)c1ccc2nc(CO[C@H]3CN(CC4CC4)C[C@H]3F)[nH]c2c1 ... 2.52
CC(C)c1nc2c(n1C)CCN(CC(=O)Nc1ccc(Cl)cn1)C2 ... 0.241

Lab note: next compound to report on.
For this compound ( Cc1nc(C)n(C2CCCN(C(=O)c3cccc4[nH]ncc34)C2)n1 (stereo unspecified) ), measured cytotoxicity at 10 µM is -4.72

---

# Test: Toxicity liver stage against HepG2, at 10uM
# Assay type: cell-based
# Set-up: test concentration 10 uM, cell line HepG2-A16-CD81EGFP
# Experimental Setup: human, HepG2-A16-CD81EGFP cells; read-out: INHIBITION
Readout: cytotoxicity at 10 µM (%)
Give just the numeric value; % need not be written.

Cn1cc(C2=NOC(C(=O)NC3(c4cccc(F)c4)CCCC3)C2)cn1 (stereo unspecified) ... 1.53
Cc1ccc(CN2CC[C@@H](NC(=O)c3cccnc3)[C@H](O)C2)s1 ... -2.68
COc1ccnc(N2CCN(C(=O)CCc3nccs3)CC2)n1 ... -8.97
CCC(C)(CC(=O)O)NC(=O)Cc1ccccc1F (stereo unspecified) ... -1.28
CCCS(=O)(=O)NCCn1ccc(-c2cccs2)n1 ... 5.55

Form field cytotoxicity at 10 µM, entry "C=C(Br)CN(C)C1CCN(CCc2ccccn2)CC1" : 0.953

The molecule COc1cc(C)ccc1OCCC(=O)N1CCC(C(N)=O)C1 (stereo unspecified) showed cytotoxicity at 10 µM equal to 6.31

Lab note: c1csc(-c2nc(CN3CCCCC3Cn3cncn3)cs2)c1 (stereo unspecified) gave cytotoxicity at 10 µM of -1.19

Briefly, cytotoxicity at 10 µM measured for "COCCCn1nnc(C2(NC(=O)c3ccccc3)CCCC2)n1" : 9.24

cytotoxicity at 10 µM recorded for this molecule, "Cc1ccc(C(=O)N2CC[C@H]3[C@H]2CCN3CC2CCOCC2)cc1F" , is -83.3

Entry "COc1cccc(N2CCN(Cc3ccc4[nH]ccc4c3)CC2=O)c1" , cytotoxicity at 10 µM reported as 4.59

---

# Test: Toxicity liver stage against HepG2, at 10uM
# Type: cell-based
# Design: test concentration 10 uM, cell line HepG2-A16-CD81EGFP
# Experimental Setup: human, HepG2-A16-CD81EGFP cells; read-out: INHIBITION
# Lookup of reported cytotoxicity at 10 µM keyed by entry
// note: answer is a bare numeric in %

Worked examples follow.
O=C(NCc1cccc(C(F)(F)F)c1)C(c1cccnc1)N1CCCC1 (configuration not stated) ... 6.63
Cc1ccc([C@@H]2CN(S(=O)(=O)N3CCC(C)CC3)C[C@H]2N(C)C)cc1 ... -3.59
O=C(c1cnccn1)N1CCc2onc(CN3CCOCC3)c2C1 ... 9.47
O=C1NC2(CCN(Cc3cccs3)CC2)CC1c1ccncc1 (configuration not stated) ... 1.2
CCOC(=O)CN1CCC2(CC1)CC(NC(=O)c1ccccn1)CO2 (configuration not stated) ... 2.17
COc1ccccc1CCN(C)C(=O)NC(C)c1nncn1C (configuration not stated) ... -1.88
CN1CCN(c2cc(NC(=O)Cn3ccc4ccccc43)ncn2)CC1 ... -0.973
CC(C)CN1CCc2[nH]cnc2C12CCN(C(=O)c1cncn1C)CC2 ... -8.1

Sample CCCOc1c(CNC2CCSC2)cccc1OC (configuration not stated) ; cytotoxicity at 10 µM observed: 4.36

For Cc1cccn2c(CNC(C)CCn3cccn3)cnc12 (configuration not stated) the molecule record lists cytotoxicity at 10 µM as 21.6

molecule CN(C)C(=O)CN1CCOCC2(C1)CN(c1ncc(F)cn1)CCO2 (configuration not stated) , cytotoxicity at 10 µM observed: -6.69

// cytotoxicity at 10 µM lookup, molecule = CC(C(=O)NCCN1CCCCCC1)n1cncn1 (configuration not stated) , result: -1.4
